Target: T1, hFc-tagged human 4-1BB extracellular domain protein (4-1BB-hFc) (human, UniProt Q07011 24-186, limits assumed)
T1 construct: also called immunogen A; 4-1BB^ECD-hFc; not shown: human IgG Fc fragment (hFc) of the pCpC vector
Test: ELISA, coated human 4-1BB-hFc; Ab 0.4 ug/ml

{"binder": "52F4G2 (antibody, V domains shown) VH: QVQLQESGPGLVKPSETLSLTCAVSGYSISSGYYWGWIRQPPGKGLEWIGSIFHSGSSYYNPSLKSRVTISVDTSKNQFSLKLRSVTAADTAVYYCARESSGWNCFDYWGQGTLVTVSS VL: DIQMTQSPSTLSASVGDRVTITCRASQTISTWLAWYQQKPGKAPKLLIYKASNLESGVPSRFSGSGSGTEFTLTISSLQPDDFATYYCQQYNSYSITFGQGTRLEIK", "unit-spec": "OD450 nm", "OD450 nm": 3.09}
{"binder": "172E3E3 (antibody, V domains shown) VH: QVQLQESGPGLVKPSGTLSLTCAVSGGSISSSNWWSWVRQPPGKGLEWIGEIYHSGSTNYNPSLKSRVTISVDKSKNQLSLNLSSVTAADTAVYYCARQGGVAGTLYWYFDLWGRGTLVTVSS VL: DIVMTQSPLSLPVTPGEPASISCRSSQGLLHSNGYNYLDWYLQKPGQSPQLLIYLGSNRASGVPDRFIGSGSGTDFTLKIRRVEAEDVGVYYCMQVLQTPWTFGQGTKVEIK", "unit-spec": "OD450 nm", "OD450 nm": 3.44}
{"binder": "170D7F2 (antibody, V domains shown) VH: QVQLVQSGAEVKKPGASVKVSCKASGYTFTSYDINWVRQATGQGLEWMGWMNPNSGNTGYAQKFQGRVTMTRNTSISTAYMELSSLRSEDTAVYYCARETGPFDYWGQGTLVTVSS VL: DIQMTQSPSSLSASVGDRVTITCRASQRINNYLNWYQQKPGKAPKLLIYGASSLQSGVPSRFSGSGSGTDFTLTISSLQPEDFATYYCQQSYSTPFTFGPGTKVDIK", "unit-spec": "OD450 nm", "OD450 nm": 3.5}
